Provenance of the data: paper PMC11079024

molecular target: C. elegans (N2) complex I (NADH:ubiquinone oxidoreductase) (Caenorhabditis elegans, UniProt P24887+Q93873+Q94360); assay: biochemical; assay type: biochemical; details: 100 μM of NPD compound; C. elegans mitochondria; mean of four biological replicates; read-out: Percent in vitro activity, Complex I (Mean)
Sequence (Q94360 17-199): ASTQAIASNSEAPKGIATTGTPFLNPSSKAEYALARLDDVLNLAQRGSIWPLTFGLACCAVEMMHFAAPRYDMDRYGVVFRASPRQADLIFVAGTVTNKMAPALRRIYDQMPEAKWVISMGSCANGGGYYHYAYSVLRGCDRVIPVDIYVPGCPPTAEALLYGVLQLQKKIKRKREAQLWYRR
Sequence (P24887 whole entry): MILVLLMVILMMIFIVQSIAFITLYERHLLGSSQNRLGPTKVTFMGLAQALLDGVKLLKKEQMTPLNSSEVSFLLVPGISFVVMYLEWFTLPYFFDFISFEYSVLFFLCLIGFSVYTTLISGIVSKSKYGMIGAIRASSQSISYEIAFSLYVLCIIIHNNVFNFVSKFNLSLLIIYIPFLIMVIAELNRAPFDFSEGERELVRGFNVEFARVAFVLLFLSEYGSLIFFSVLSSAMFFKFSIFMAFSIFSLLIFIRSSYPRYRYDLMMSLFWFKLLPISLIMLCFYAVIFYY
Sequence (Q93873 31-482): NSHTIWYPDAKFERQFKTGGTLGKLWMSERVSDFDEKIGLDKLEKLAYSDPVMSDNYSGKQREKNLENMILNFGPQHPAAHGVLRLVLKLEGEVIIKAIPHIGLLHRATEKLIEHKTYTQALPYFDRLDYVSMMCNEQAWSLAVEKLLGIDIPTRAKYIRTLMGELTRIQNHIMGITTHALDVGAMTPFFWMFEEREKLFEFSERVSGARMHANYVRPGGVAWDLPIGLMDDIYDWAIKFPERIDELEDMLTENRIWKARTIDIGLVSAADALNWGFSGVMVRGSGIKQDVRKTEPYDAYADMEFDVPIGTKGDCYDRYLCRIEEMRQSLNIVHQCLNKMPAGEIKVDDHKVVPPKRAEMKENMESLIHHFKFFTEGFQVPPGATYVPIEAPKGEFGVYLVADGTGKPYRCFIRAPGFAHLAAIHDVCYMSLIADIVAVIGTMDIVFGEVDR
Mark class 1 for activity at 100 µM under 10%, class 0 if at or over.

Ask: Is it true that activity at 100 µM reported for COc1cc2c(cc1OC)C(/C=C/c1ccc(N(C)C)cc1)=NCC2 is less than 10%?
Result: class 0

Ask: Is it true that activity at 100 µM reported for CC(C)Cc1ccc(C(C)c2nc3ccccc3n2C)cc1 (stereo not drawn) is less than 10%?
Result: class 1

Ask: Is it true that activity at 100 µM reported for COc1cc2c(cc1OC)C(C(C)c1ccc(CC(C)C)cc1)=NCC2 (stereo not drawn) is less than 10%?
Result: class 1

Further cases:
Ask: Is it true that activity at 100 µM reported for CCCCCC[C@H]1C(=O)O[C@H](C)[C@H](NC(=O)c2cccc(NC=O)c2O)C(=O)O[C@@H](C)[C@@H]1OC(=O)CC(C)C [Antimycin A, reference compound] is less than 10%?
Result: class 0

Ask: Is it true that activity at 100 µM reported for C=C(C)[C@H]1Cc2c(ccc3c2O[C@@H]2COc4cc(OC)c(OC)cc4[C@@H]2C3=O)O1 [Rotenone, reference compound] is less than 10%?
Result: class 1

Ask: Is it true that activity at 100 µM reported for COc1cc2c(cc1OC)C(c1ccc(-c3ccc(Cl)c(Cl)c3)o1)=NCC2 is less than 10%?
Result: class 0

###

assay: in vitro; conditions: human, HEK293 Cell Viability Assay LC50, HEK293 cells; estimated from fitted dose-response curves
Mark condition met for CC50 at 2 days under 60 µM, condition not met if at or over.

Ask: Is it true that CC50 at 2 days reported for Cc1nc2ccccc2n1CCOc1ccccc1 is less than 60 µM?
Result: condition not met

Ask: Is it true that CC50 at 2 days reported for Clc1ccc(Cn2cnc3ccccc32)cc1Cl is less than 60 µM?
Result: condition not met

Ask: Is it true that CC50 at 2 days reported for CCc1cc(OCCn2cnc3ccccc32)ccc1Cl is less than 60 µM?
Result: condition met

Further cases:
Ask: Is it true that CC50 at 2 days reported for Cc1ccc(OCCn2cnc3ccccc32)cc1 is less than 60 µM?
Result: condition not met

Ask: Is it true that CC50 at 2 days reported for Clc1ccc(OCCn2cnc3ccccc32)c(Cl)c1 is less than 60 µM?
Result: condition met

Ask: Is it true that CC50 at 2 days reported for CC(C)Cc1ccc(C(C)c2nc3ccccc3n2C(C)C)cc1 (stereo not drawn) is less than 60 µM?
Result: condition met

Ask: Is it true that CC50 at 2 days reported for Cc1ccc(Cn2c(C(C)C)nc3ccccc32)cc1 is less than 60 µM?
Result: condition not met

Ask: Is it true that CC50 at 2 days reported for Nc1nc2ccccc2n1CCOc1ccc(Br)cc1 is less than 60 µM?
Result: condition met

###

biological target: C. elegans (N2) complex I (NADH:ubiquinone oxidoreductase) (Caenorhabditis elegans, UniProt P24887+Q93873+Q94360); assay: biochemical; format: biochemical; conditions: Dose 15 µM; read-out: C. elegans mitochondrial complex I activity
So I've got a bunch of compounds here, and I need their activity at 15 µM values.
Numbers only, in %.

Consider the worked cases shown below.
Ask: # input compound: CC(C)Oc1cccc(OCCn2cnc3ccccc32)c1 [Compound 7926496] ; wanted: its activity at 15 µM
Result: 17.8

Ask: # input compound: Cc1ccc(SCCCn2cnc3ccccc32)cc1 [Compound 7926035] ; wanted: its activity at 15 µM
Result: 3.26

Ask: # input compound: Cc1ccc(OCCn2cnc3ccccc32)c(C)c1 [Compound 7706808] ; wanted: its activity at 15 µM
Result: 16.3

Ask: # input compound: Cc1cccc(OCCn2c(C)nc3ccccc32)c1 [Compound 6285199] ; wanted: its activity at 15 µM
Result: 3.64

Further cases:
Ask: # input compound: Cc1ccc(SCCCCn2cnc3ccccc32)cc1 [Compound 7925333] ; wanted: its activity at 15 µM
Result: 10.5
